Test: Serum stability test, monkey serum
Format: in vitro ADME, cynomolgus monkey
Conditions: male, residual ratio: IS ratio at 4 hours relative to 0 hours, 37° C.
Positions of bridges follow the written chain, without caps; N, C: chain ends. Non-standard residues stand in square brackets, D forms with d. Residues, ends and D or L forms follow the SMILES beside them. 2Nal = N[C@@H](Cc1ccc2ccccc2c1)C(=O)O; Gly(cPent) = N[C@H](C(=O)O)C1CCCC1
QUANTITY NAME: remaining at 4 h, 20 μM (%)

| MOLECULE | RECORDED NUMBER |
| --- | --- |
| N=C(N)NCCC[C@@H]1NC(=O)CNC(=O)[C@@H]2CSSC[C@H](NC(=O)[C@H](Cc3c[nH]c4ccccc34)NC(=O)[C@H](CC(=O)O)NC1=O)C(=O)N[C@@H](CCCNC(=N)N)C(=O)N[C@@H](Cc1c[nH]c3ccccc13)C(=O)N[C@@H](C1CCCC1)C(=O)N[C@H](C(N)=O)CSCC(=O)N[C@@H](Cc1ccc3ccccc3c1)C(=O)N[C@@H](CCCNC(=N)N)C(=O)N2 [Peptide-128] ({CH2CO}-[2Nal]RCGRDWCRW[Gly(cPent)]C-NH2; disulfide 3-8; thioether N-12) | 98.6 |
